Cited source: patent US20140249135A1

Biological target: KDR kinase (Homo sapiens, UniProt P35968)
Sequence (P35968 20-1356): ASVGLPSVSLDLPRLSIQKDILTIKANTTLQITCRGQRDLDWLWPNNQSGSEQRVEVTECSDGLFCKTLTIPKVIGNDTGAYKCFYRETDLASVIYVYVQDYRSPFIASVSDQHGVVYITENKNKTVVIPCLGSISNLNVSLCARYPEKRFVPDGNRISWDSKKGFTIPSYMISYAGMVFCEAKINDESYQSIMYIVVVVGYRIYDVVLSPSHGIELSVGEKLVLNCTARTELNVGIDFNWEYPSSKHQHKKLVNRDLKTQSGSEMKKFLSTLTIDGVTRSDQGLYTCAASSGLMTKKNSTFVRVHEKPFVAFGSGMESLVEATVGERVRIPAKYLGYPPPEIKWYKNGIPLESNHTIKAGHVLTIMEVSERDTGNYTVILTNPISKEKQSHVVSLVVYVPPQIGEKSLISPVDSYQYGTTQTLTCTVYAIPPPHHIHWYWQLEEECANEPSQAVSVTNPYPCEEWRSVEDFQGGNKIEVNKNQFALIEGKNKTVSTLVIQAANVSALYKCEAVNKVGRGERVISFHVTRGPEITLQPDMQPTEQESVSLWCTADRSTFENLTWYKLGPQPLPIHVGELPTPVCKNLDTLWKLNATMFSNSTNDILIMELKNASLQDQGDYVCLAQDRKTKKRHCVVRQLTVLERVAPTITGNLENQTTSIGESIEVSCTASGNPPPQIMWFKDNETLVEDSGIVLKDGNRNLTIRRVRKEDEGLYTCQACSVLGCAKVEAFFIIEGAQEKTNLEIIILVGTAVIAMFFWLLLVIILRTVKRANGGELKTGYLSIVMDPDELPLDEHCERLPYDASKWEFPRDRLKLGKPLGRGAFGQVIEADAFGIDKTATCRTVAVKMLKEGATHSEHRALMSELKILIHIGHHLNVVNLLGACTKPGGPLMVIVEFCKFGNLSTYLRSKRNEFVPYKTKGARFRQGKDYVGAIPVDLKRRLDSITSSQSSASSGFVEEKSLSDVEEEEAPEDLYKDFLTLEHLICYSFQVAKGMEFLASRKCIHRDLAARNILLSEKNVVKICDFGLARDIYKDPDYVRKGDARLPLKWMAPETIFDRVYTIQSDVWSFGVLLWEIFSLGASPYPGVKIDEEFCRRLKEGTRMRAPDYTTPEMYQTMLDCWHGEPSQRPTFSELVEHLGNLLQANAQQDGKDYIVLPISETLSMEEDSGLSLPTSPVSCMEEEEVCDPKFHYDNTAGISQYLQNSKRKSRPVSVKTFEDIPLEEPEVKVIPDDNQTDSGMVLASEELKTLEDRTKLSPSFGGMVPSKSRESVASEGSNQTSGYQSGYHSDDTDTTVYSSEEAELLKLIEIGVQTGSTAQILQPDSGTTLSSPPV
Assay: KDR AlphaScreen assay
Settings: KDR IC50 (μM)
Property: IC50; scope: individual molecules
Result type: IC50

# Molecule, Result
data = [
    ("COc1ncccc1-c1cnc(N)c(C(=O)Nc2ccccc2N2CCNCC2)n1", "1 to 10 µM"),
    ("Cc1ccc(N2CCNCC2)c(NC(=O)c2nccnc2N)c1", "> 25 µM"),
    ("Nc1cc(Cl)c(-c2ccc(N)c(C(=O)Nc3cnccc3N3CCC[C@H](N)C3)n2)cn1", "> 25 µM"),
    ("NCC(=O)N1CCN(c2ccncc2NC(=O)c2nc(Cl)c(N)nc2N)CC1", "1 to 10 µM"),
    ("Nc1ncc(-c2ccccc2F)nc1C(=O)Nc1ccccc1N1CCCC(N)C1 (centres unmarked)", "1 to 10 µM"),
]

----------
Biological target: UniProtKB Q9P1W9
Assay: Pim2 ATP depletion assay
Format: biochemical
Conditions: read-out: IC50 (μM) PIM2

# Compound, IC50
measured = [
    ("Nc1nccnc1C(=O)Nc1cncnc1N1CCCCC1", "> 25 µM"),
    ("Cc1nc(N)cc(-c2ccncc2NC(=O)c2nc(-c3c(F)cccc3F)ccc2N)n1", "< 1 µM"),
    ("Nc1cnc(-c2c(F)cccc2F)nc1C(=O)Nc1cnccc1N1CCC[C@H](N)C1", "< 1 µM"),
    ("Nc1ncc(-c2ccccc2)nc1C(=O)Nc1cc(C(=O)c2ccccc2)ccc1N1CCCC(N)C1 (stereo not drawn)", "1 to 10 µM"),
    ("CC(C)NC(=O)c1ccc(F)c(-c2ccc(N)c(C(=O)Nc3cnccc3N3C[C@@H](N)C[C@H](OC(=O)c4ccccc4)C3)n2)c1 (stereo in doubt)", "< 1 µM"),
    ("Nc1nccnc1C(=O)Nc1cccnc1N1CCCC(N)C1 (stereo not drawn)", "10 to 25 µM"),
    ("NCC1CCCN(c2cnc(=O)[nH]c2NC(=O)c2nc(Br)cnc2N)C1 (stereo not drawn)", "< 1 µM"),
    ("Cc1ccc(F)c(-c2ccc(N)c(C(=O)Nc3cnccc3N3CCC[C@H](N)C3)n2)c1", "< 1 µM"),
    ("Nc1ncc(-c2cncnc2)nc1C(=O)Nc1cnccc1N1CCCC(N)C1 (stereo not drawn)", "< 1 µM"),
]

----------
Biological target: Pim2 kinase (Homo sapiens)
Sequence (Q9P1W9 whole entry): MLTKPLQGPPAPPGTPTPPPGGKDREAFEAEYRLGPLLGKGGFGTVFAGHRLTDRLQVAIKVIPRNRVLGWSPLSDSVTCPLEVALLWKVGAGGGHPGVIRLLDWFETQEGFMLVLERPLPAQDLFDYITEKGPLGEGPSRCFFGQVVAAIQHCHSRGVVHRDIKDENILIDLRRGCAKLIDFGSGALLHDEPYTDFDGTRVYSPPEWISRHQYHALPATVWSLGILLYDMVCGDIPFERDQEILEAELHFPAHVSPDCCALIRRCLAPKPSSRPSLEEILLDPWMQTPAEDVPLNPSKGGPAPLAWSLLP
Assay: Pim2 ATP depletion assay
Format: biochemical
Conditions: read-out: PIM2 IC50

# Compound, IC50
measured = [
    ("Nc1ccc(-c2cccnc2F)nc1C(=O)Nc1ccncc1N1CCCC(N)C1 (centres unmarked) [Example 552]", "< 1 µM"),
    ("CCc1cccc(-c2ccc(N)c(C(=O)Nc3cnccc3-c3cc(N)nc(C)n3)n2)c1 [Example 555]", "< 1 µM"),
    ("Nc1cc(-c2ccncc2NC(=O)c2nc(-c3ccccc3F)ccc2N)ccn1 [Example 605]", "< 1 µM"),
    ("Cc1nc(N)cc(-c2ccncc2NC(=O)c2nc(-c3ccccc3)ccc2N)n1 [Example 559]", "< 1 µM"),
    ("Cc1ccc(F)c(-c2ccc(N)c(C(=O)Nc3cnccc3N3CCC[C@H](N)C3)n2)n1 [Example 709]", "< 1 µM"),
    ("Nc1ccc(-c2ncccc2F)nc1C(=O)Nc1cnccc1N1CCC[C@H](O)C1 [Example 690]", "< 1 µM"),
    ("CC(C)NC(=O)c1ccc(F)c(-c2cccc(C(=O)Nc3cnccc3-c3cc(N)nc(C(F)(F)F)n3)n2)c1 [Example 553]", "< 1 µM"),
    ("Nc1ccc(-c2nccs2)nc1C(=O)Nc1cnccc1N1CCC[C@H](N)C1 [Example 632]", "< 1 µM"),
]

----------
Property: IC50; scope: individual molecules
Molecular target: KDR kinase (Homo sapiens, UniProt P35968)
Assay: KDR AlphaScreen assay
Settings: KDR IC50 (μM)

# Molecule, IC50
rows = [
    ("COc1ccc(-c2cnc(N)c(C(=O)Nc3cnccc3N3CCCC(N)C3)n2)cc1 (centres unmarked)", "< 1 µM"),
    ("Nc1cnc(-c2c(F)cccc2F)nc1C(=O)Nc1cnccc1N1CCC[C@H](O)C1", "10 to 25 µM"),
    ("Cc1nc(N)cc(-c2ccncc2NC(=O)c2nc(-c3ccccc3)ncc2N)n1", "1 to 10 µM"),
    ("Nc1ncc(-c2ccccc2F)nc1C(=O)Nc1cnccc1N1CCC(N)CC1", "< 1 µM"),
    ("CCCOc1ccc(F)c(-c2ncc(N)c(C(=O)Nc3cnccc3N3CCC[C@H](N)C3)n2)c1F", "10 to 25 µM"),
    ("CN1CCC(NC2CCCN(c3ccncc3NC(=O)c3nc(Br)cnc3N)C2)CC1 (centres unmarked)", "> 25 µM"),
    ("Nc1cnc(-c2ccccc2)nc1C(=O)Nc1cnccc1N1CCC[C@H](O)C1", "10 to 25 µM"),
    ("COc1ccc(-c2cnc(N)c(C(=O)Nc3ccccc3N3CCC(N)CC3)n2)cc1", "1 to 10 µM"),
    ("Nc1nc(N)c(-c2ccccc2Cl)nc1C(=O)Nc1cnccc1N1CCCC(N)C1 (centres unmarked)", "1 to 10 µM"),
    ("Nc1ccc(-c2ccncc2Cl)nc1C(=O)Nc1cnccc1N1CCC[C@H](N)C1", "> 25 µM"),
    ("Nc1ncc(-c2ccccc2)nc1C(=O)Nc1[nH]c(=O)ncc1N1CCCCC1", "< 1 µM"),
    ("N[C@H]1CCCN(c2ccncc2NC(=O)c2cccc(-c3ccccc3F)n2)C1", "10 to 25 µM"),
    ("N[C@H]1CCCN(c2ccncc2NC(=O)c2cccc(-c3c(F)cccc3F)n2)C1", "10 to 25 µM"),
    ("Nc1cnc(-c2ccc(Cl)cc2F)nc1C(=O)Nc1cnccc1N1CCC[C@H](N)C1", "10 to 25 µM"),
    ("COc1ncc(-c2cnc(N)c(C(=O)Nc3ccccc3N3CCNCC3)n2)cn1", "> 25 µM"),
    ("Nc1nccnc1C(=O)Nc1ccncc1N1CCCC(N)C1 (centres unmarked)", "10 to 25 µM"),
    ("CN(C)C1CCN(c2ccncc2NC(=O)c2nccnc2N)CC1", "1 to 10 µM"),
    ("Nc1ccc(-c2ccccc2Cl)nc1C(=O)Nc1cnccc1N1CCC[C@H](N)C1", "10 to 25 µM"),
    ("Nc1nccnc1C(=O)Nc1cc(C(=O)C2CC2)ccc1N1CCC(N)CC1", "10 to 25 µM"),
    ("Nc1cccnc1C(=O)Nc1ccncc1N1CCCC(N)C1 (centres unmarked)", "> 25 µM"),
    ("Nc1nccnc1C(=O)Nc1cc(Cl)ccc1N1CCCC(N)C1 (centres unmarked)", "> 25 µM"),
    ("COc1ccc(-c2cnc(N)c(C(=O)Nc3cc(C(=O)c4ccccc4)ccc3N3CCNCC3)n2)cc1", "< 1 µM"),
    ("Nc1ncc(-c2ccccc2F)nc1C(=O)Nc1ccccc1N1CCC(N)CC1", "1 to 10 µM"),
    ("Cc1ccc(NC(=O)c2nccnc2N)c(N2CCNCC2)c1", "> 25 µM"),
    ("NCCC(=O)N1CCN(c2cnc(=O)[nH]c2NC(=O)c2nc(Cl)c(N)nc2N)CC1", "< 1 µM"),
    ("COc1ccc(N2CCCC(N)C2)c(NC(=O)c2nc(Br)cnc2N)c1 (centres unmarked)", "10 to 25 µM"),
    ("Nc1nccnc1C(=O)Nc1ccccc1N1CCCC(N)C1 (centres unmarked)", "> 25 µM"),
    ("NCC1CCCN(c2cnc(=O)[nH]c2NC(=O)c2nc(Cl)c(N)nc2N)C1 (centres unmarked)", "10 to 25 µM"),
    ("Nc1ncc(-c2ccccc2Oc2ccccc2)nc1C(=O)Nc1ccccc1N1CCNCC1", "10 to 25 µM"),
    ("Nc1nccnc1C(=O)Nc1ccccc1N1CCC(N)CC1", "> 25 µM"),
    ("Nc1nccnc1C(=O)Nc1cc(C(F)(F)F)ccc1N1CCCC(N)C1 (centres unmarked)", "> 25 µM"),
    ("Nc1ncc(-c2cccc3ccccc23)nc1C(=O)Nc1ccccc1N1CCNCC1", "1 to 10 µM"),
    ("Nc1ncc(-c2ccoc2)nc1C(=O)Nc1ccccc1N1CCC(N)CC1", "1 to 10 µM"),
    ("Nc1nc(N)c(C(=O)Nc2[nH]c(=O)ncc2N2CCC(C(F)(F)F)CC2)nc1Cl", "< 1 µM"),
    ("Nc1cnc(-c2ccccc2)nc1C(=O)Nc1cnccc1N1CCC[C@H](N)C1", "10 to 25 µM"),
]

----------
Property: IC50; scope: individual molecules
Biological target: UniProt Q9P1W9
Test: Pim2 ATP depletion assay;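 also: Luciferase-based luminescent readout of ATP remaining after PIM2 phosphorylates a BAD peptide, final 5 nM enzyme, 4 µM ATP, 10 µM peptide, 2.5% DMSO, run to roughly half ATP consumption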
Format: biochemical
Conditions: read-out: IC50 (μM) PIM2
Result type: IC50

# Structure as smiles, Result
rows = [
    ("Nc1ccc(-c2scc3c2OCCO3)nc1C(=O)Nc1cnccc1N1CCC[C@H](N)C1", "< 1 µM"),
    ("Nc1cnc(-c2c(F)cccc2F)nc1C(=O)Nc1cnccc1N1C[C@H](N)C[C@H](N)C1", "< 1 µM"),
    ("Nc1ccc(-c2ccccc2)nc1C(=O)Nc1cnccc1N1CCC[C@H](N)C1", "< 1 µM"),
    ("CCCOc1ccc(F)c(-c2ccc(N)c(C(=O)Nc3cnccc3-c3cc(N)nc(SC)n3)n2)c1F", "< 1 µM"),
]
